- APPLIED CONDITIONS: 308.15 K; 100 kPa; Liquid; Vibrating tube method
Numbers after ± are expanded uncertainties.
Assign mass density to each entry below.
Report the figure along with its unit, number first.

Exercise: So what's the measured mass density for this one? CC[N+](C)(CCO)CCO.O=S(=O)([N-]S(=O)(=O)C(F)(F)F)C(F)(F)F
Key: 1506.2 ± 1.2 kg/m3

Exercise: So what's the measured mass density for this one? C[N+](CCO)(CCO)CCO.O=S(=O)([N-]S(=O)(=O)C(F)(F)F)C(F)(F)F
Key: 1557.8 ± 1.2 kg/m3

Exercise: So what's the measured mass density for this one? CCCC[N+](C)(C)CC.O=S(=O)([N-]S(=O)(=O)C(F)(F)F)C(F)(F)F
Key: 1362.8 ± 1.1 kg/m3

Exercise: So what's the measured mass density for this one? CC[N+](C)(C)CCCO.O=S(=O)([N-]S(=O)(=O)C(F)(F)F)C(F)(F)F
Key: 1454.7 ± 1.2 kg/m3

Exercise: So what's the measured mass density for this one? CCCC[N+](CCO)(CCO)CCO.O=S(=O)([N-]S(=O)(=O)C(F)(F)F)C(F)(F)F
Key: 1447.9 ± 1.2 kg/m3

Exercise: So what's the measured mass density for this one? CC[N+](CCO)(CCO)CCO.O=S(=O)([N-]S(=O)(=O)C(F)(F)F)C(F)(F)F
Key: 1521 ± 1.2 kg/m3

Exercise: So what's the measured mass density for this one? CC[N+](C)(C)CCOC.O=S(=O)([N-]S(=O)(=O)C(F)(F)F)C(F)(F)F
Key: 1421.6 ± 1.1 kg/m3

====

Assign viscosity to each entry below.
- APPLIED CONDITIONS: 353.15 K; 100 kPa; Liquid; Concentric cylinders viscometry
The reply should be a number in mPa·s, with the unit left off.

Exercise: So what's the measured viscosity for this one? CC[N+](CCO)(CCO)CCO.O=S(=O)([N-]S(=O)(=O)C(F)(F)F)C(F)(F)F
Key: 41.9

Exercise: So what's the measured viscosity for this one? CCCC[N+](C)(C)CC.O=S(=O)([N-]S(=O)(=O)C(F)(F)F)C(F)(F)F
Key: 14.2

Exercise: So what's the measured viscosity for this one? CC[N+](C)(CCO)CCO.O=S(=O)([N-]S(=O)(=O)C(F)(F)F)C(F)(F)F
Key: 24.3

Exercise: So what's the measured viscosity for this one? CCCC[N+](CCO)(CCO)CCO.O=S(=O)([N-]S(=O)(=O)C(F)(F)F)C(F)(F)F
Key: 44.7

Exercise: So what's the measured viscosity for this one? C[N+](CCO)(CCO)CCO.O=S(=O)([N-]S(=O)(=O)C(F)(F)F)C(F)(F)F
Key: 35.6

Exercise: So what's the measured viscosity for this one? CC[N+](C)(C)CCCO.O=S(=O)([N-]S(=O)(=O)C(F)(F)F)C(F)(F)F
Key: 18.7

Exercise: So what's the measured viscosity for this one? CC[N+](C)(C)CCOC.O=S(=O)([N-]S(=O)(=O)C(F)(F)F)C(F)(F)F
Key: 11

====

- APPLIED CONDITIONS: 338.15 K; 100 kPa; Liquid; Vibrating tube method
OBSERVED PROPERTY: mass density (kg/m3)
The reply should be a number in kg/m3, with the unit left off.

Exercise: So what's the measured mass density for this one? CC[N+](C)(C)CCCO.O=S(=O)([N-]S(=O)(=O)C(F)(F)F)C(F)(F)F
Key: 1428.7

Exercise: So what's the measured mass density for this one? CCCC[N+](CCO)(CCO)CCO.O=S(=O)([N-]S(=O)(=O)C(F)(F)F)C(F)(F)F
Key: 1422.1

Exercise: So what's the measured mass density for this one? C[N+](CCO)(CCO)CCO.O=S(=O)([N-]S(=O)(=O)C(F)(F)F)C(F)(F)F
Key: 1531

Exercise: So what's the measured mass density for this one? CC[N+](CCO)(CCO)CCO.O=S(=O)([N-]S(=O)(=O)C(F)(F)F)C(F)(F)F
Key: 1494.9

Exercise: So what's the measured mass density for this one? CC[N+](C)(C)CCOC.O=S(=O)([N-]S(=O)(=O)C(F)(F)F)C(F)(F)F
Key: 1394

Exercise: So what's the measured mass density for this one? CCCC[N+](C)(C)CC.O=S(=O)([N-]S(=O)(=O)C(F)(F)F)C(F)(F)F
Key: 1336.9

Exercise: So what's the measured mass density for this one? CC[N+](C)(CCO)CCO.O=S(=O)([N-]S(=O)(=O)C(F)(F)F)C(F)(F)F
Key: 1479.7

====

- APPLIED CONDITIONS: 308.15 K; 100 kPa; Liquid; Frequency=0.0006 MHz; Alternating current cell with electrodes
OBSERVED PROPERTY: electrical conductivity (S/m)
The reply should be a number in S/m, with the unit left off.

Exercise: So what's the measured electrical conductivity for this one? CC[N+](C)(C)CCCO.O=S(=O)([N-]S(=O)(=O)C(F)(F)F)C(F)(F)F
Key: 0.204

Exercise: So what's the measured electrical conductivity for this one? CCCC[N+](CCO)(CCO)CCO.O=S(=O)([N-]S(=O)(=O)C(F)(F)F)C(F)(F)F
Key: 0.034

Exercise: So what's the measured electrical conductivity for this one? CC[N+](C)(C)CCOC.O=S(=O)([N-]S(=O)(=O)C(F)(F)F)C(F)(F)F
Key: 0.415

Exercise: So what's the measured electrical conductivity for this one? CC[N+](CCO)(CCO)CCO.O=S(=O)([N-]S(=O)(=O)C(F)(F)F)C(F)(F)F
Key: 0.052

Exercise: So what's the measured electrical conductivity for this one? CC[N+](C)(CCO)CCO.O=S(=O)([N-]S(=O)(=O)C(F)(F)F)C(F)(F)F
Key: 0.13

Exercise: So what's the measured electrical conductivity for this one? C[N+](CCO)(CCO)CCO.O=S(=O)([N-]S(=O)(=O)C(F)(F)F)C(F)(F)F
Key: 0.068

Exercise: So what's the measured electrical conductivity for this one? CCCC[N+](C)(C)CC.O=S(=O)([N-]S(=O)(=O)C(F)(F)F)C(F)(F)F
Key: 0.279

====

Assign mass density to each entry below.
- APPLIED CONDITIONS: 317.15 K; 100 kPa; Liquid; Vibrating tube method
The reply should be a number in kg/m3, with the unit left off.

Exercise: So what's the measured mass density for this one? CCCC[N+](C)(C)CC.O=S(=O)([N-]S(=O)(=O)C(F)(F)F)C(F)(F)F
Key: 1355

Exercise: So what's the measured mass density for this one? CCCC[N+](CCO)(CCO)CCO.O=S(=O)([N-]S(=O)(=O)C(F)(F)F)C(F)(F)F
Key: 1440.2

Exercise: So what's the measured mass density for this one? CC[N+](C)(CCO)CCO.O=S(=O)([N-]S(=O)(=O)C(F)(F)F)C(F)(F)F
Key: 1498.1

Exercise: So what's the measured mass density for this one? C[N+](CCO)(CCO)CCO.O=S(=O)([N-]S(=O)(=O)C(F)(F)F)C(F)(F)F
Key: 1549.7

Exercise: So what's the measured mass density for this one? CC[N+](C)(C)CCCO.O=S(=O)([N-]S(=O)(=O)C(F)(F)F)C(F)(F)F
Key: 1446.8

Exercise: So what's the measured mass density for this one? CC[N+](CCO)(CCO)CCO.O=S(=O)([N-]S(=O)(=O)C(F)(F)F)C(F)(F)F
Key: 1513.1

Exercise: So what's the measured mass density for this one? CC[N+](C)(C)CCOC.O=S(=O)([N-]S(=O)(=O)C(F)(F)F)C(F)(F)F
Key: 1413.2

====

- APPLIED CONDITIONS: 356.15 K; 100 kPa; Liquid; Vibrating tube method
± gives the expanded uncertainty stated by the source.
Assign mass density to each entry below.

Exercise: So what's the measured mass density for this one? CC[N+](C)(C)CCCO.O=S(=O)([N-]S(=O)(=O)C(F)(F)F)C(F)(F)F
Key: 1413.3 ± 1.1 kg/m3

Exercise: So what's the measured mass density for this one? CC[N+](CCO)(CCO)CCO.O=S(=O)([N-]S(=O)(=O)C(F)(F)F)C(F)(F)F
Key: 1479.6 ± 1.2 kg/m3

Exercise: So what's the measured mass density for this one? CCCC[N+](CCO)(CCO)CCO.O=S(=O)([N-]S(=O)(=O)C(F)(F)F)C(F)(F)F
Key: 1406.9 ± 1.1 kg/m3

Exercise: So what's the measured mass density for this one? C[N+](CCO)(CCO)CCO.O=S(=O)([N-]S(=O)(=O)C(F)(F)F)C(F)(F)F
Key: 1515.4 ± 1.2 kg/m3

Exercise: So what's the measured mass density for this one? CC[N+](C)(CCO)CCO.O=S(=O)([N-]S(=O)(=O)C(F)(F)F)C(F)(F)F
Key: 1464.3 ± 1.2 kg/m3

Exercise: So what's the measured mass density for this one? CC[N+](C)(C)CCOC.O=S(=O)([N-]S(=O)(=O)C(F)(F)F)C(F)(F)F
Key: 1377.7 ± 1.1 kg/m3

Exercise: So what's the measured mass density for this one? CCCC[N+](C)(C)CC.O=S(=O)([N-]S(=O)(=O)C(F)(F)F)C(F)(F)F
Key: 1321.6 ± 1.1 kg/m3
